These data points were gathered from patent US11773078B2.

Each entry below lists one item and its recorded furin enzyme pIC50 value.
Target: Furin (108-574-Tev-Flag-His) enzyme (Homo sapiens)
Construct: Furin (108-574-Tev-Flag-His) enzyme was expressed and purified from CHO cells; TEV cleavage site (C); FLAG (C); His (C); made in house; host or cells: CHO cells
Sequence (P09958 108-574): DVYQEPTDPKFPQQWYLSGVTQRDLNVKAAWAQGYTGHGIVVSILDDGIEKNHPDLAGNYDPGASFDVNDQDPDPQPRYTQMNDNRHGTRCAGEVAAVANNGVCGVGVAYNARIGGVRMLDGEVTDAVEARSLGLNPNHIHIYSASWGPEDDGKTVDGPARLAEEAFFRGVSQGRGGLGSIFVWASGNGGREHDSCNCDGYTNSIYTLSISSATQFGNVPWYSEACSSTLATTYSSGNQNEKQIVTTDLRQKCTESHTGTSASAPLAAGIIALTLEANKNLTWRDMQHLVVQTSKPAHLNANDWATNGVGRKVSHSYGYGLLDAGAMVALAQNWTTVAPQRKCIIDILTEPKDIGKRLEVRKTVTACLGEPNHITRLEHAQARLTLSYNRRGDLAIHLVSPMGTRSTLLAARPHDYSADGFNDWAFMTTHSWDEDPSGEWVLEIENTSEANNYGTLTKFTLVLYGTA
Assay: Furin enzyme assay
Assay type: biochemical
Experimental: Reactions were performed in black 384-well polystyrene low volume plates (Greiner). Furin (108-574-Tev-Flag-His) enzyme was expressed and purified from CHO cells. […] Enzyme inhibition is then quantified using an Envision instrument (PerkinElmer). Data were analyzed using AbaseXE 7.3, utilizing a four-parameter curve fit equation. […] Raw counts obtained from the respective plate reader (Perkin Elmer) were captured for data analysis. […] The results were recorded as pXC50 values (−C in the above equation)
Counter-ions that a name gives are not always drawn.

- compound: "CC(=O)NCC1CCN(Cc2cc(Oc3ccc(N4CCNCC4)nc3)nc(-c3cc(Cl)cc(Cl)c3)n2)CC1 [Example 89, hydrochloride]"
  furin enzyme pIC50: 8
- compound: "CCC(=O)NCC1CCN(Cc2cc(Oc3cnc(N4CCN(CCC(C)C(=O)O)CC4)cn3)nc(-c3cc(Cl)cc(Cl)c3)c2)CC1 (stereo not shown)"
  furin enzyme pIC50: 9
- compound: "CNC(=O)NCC1CCN(Cc2cc(Oc3ccc(N4CCN(C[C@@H](C)O)CC4)nc3)nc(-c3cc(Cl)cc(Cl)c3)c2)CC1"
  furin enzyme pIC50: 9.8
- compound: "CC(=O)NCC1CCN(Cc2cc(Oc3ccc(N4CCN(CCC(=O)O)CC4)nc3)nc(-c3cc(Cl)cc(Cl)c3)c2)CC1 [Example 11, hydrochloride]"
  furin enzyme pIC50: 9.6
- compound: "COC(=O)NCC1CCN(Cc2cc(Oc3cnc(N4CCN(C)CC4)nc3)nc(-c3cc(Cl)cc(Cl)c3)c2)CC1 [Example 63, hydrochloride]"
  furin enzyme pIC50: 10.8
- compound: "CC(=O)NCC1CCN(Cc2cc(Oc3cnc(N4CCN(CCC(=O)O)CC4)nc3)nc(-c3cc(Cl)cc(C(F)F)c3)c2)CC1"
  furin enzyme pIC50: 9.2
- compound: "CNC(=O)NCC1CCN(Cc2cc(Oc3ccc(N4CCN(CCC(C)S(C)(=O)=O)CC4)nc3)nc(-c3cc(Cl)cc(Cl)c3)c2)CC1 (stereo not shown)"
  furin enzyme pIC50: 9.8
- compound: "CC(=O)NCC1CCN(Cc2cc(Oc3ccc(N4CCN(CCC(=O)O)CC4)nc3)nc(-c3cc(F)cc(Cl)c3)c2)CC1"
  furin enzyme pIC50: 8.3
- compound: "COC(=O)NCC1CCN(Cc2cc(Oc3cnc(N4CCN(CCC(=O)O)CC4)nc3)nc(-c3cc(Cl)cc(Cl)c3)c2)CC1 [Example 62, hydrochloride]"
  furin enzyme pIC50: 9.8
- compound: "CN1CCN(c2ncc(Oc3cc(CN4CCC(OCC(=O)O)CC4)cc(-c4cc(Cl)cc(Cl)c4)n3)cn2)CC1 [Example 53, hydrochloride]"
  furin enzyme pIC50: 8.7
- compound: "COC(=O)NC(=O)CCN1CCN(c2ccc(Oc3cc(CN4CCC(CNC(C)=O)CC4)cc(-c4cc(Cl)cc(Cl)c4)n3)cn2)CC1"
  furin enzyme pIC50: 9
- compound: "CC(=O)NCC1CCN(Cc2cc(Oc3cnc(N4CCN(C5CC(C(=O)O)C5)CC4)nc3)nc(-c3cc(Cl)cc(Cl)c3)c2)CC1 (stereo not shown)"
  furin enzyme pIC50: 10.2
- compound: "O=C(O)CC1CCN(Cc2cc(Oc3cnc(N4CC5CCC(C4)N5)nc3)nc(-c3cc(Cl)cc(Cl)c3)c2)CC1"
  furin enzyme pIC50: 8.7
